property-name: melting point

                                   compound         result
0  CCc1ccc2oc(-c3ccc(C=C4C(=O)C5(C)CCC4C5(C)C)cc3)nc2c1 (stereo not drawn)  178 to 179 °C
1            CN1CCN(c2ccc(C#N)c3ccccc23)CC1  128 to 129 °C
2            Oc1ncc(-c2cccc(C(F)(F)F)c2)cn1  283 to 285 °C

====

Overview of reported melting point across a group of compounds:
property-name: melting point

                                   compound         result
0        Fc1ccc2[nH]c3c4ccccc4nc-3c(Cl)c2c1  208 to 210 °C
1  CC1CCc2c(N3CCC(NC(=O)OC(C)(C)C)C3)c(F)cc3c(=O)n(N)c(=O)n1c23 (stereo not drawn)   98 to 100 °C
2       COP(=S)(OC)SCc1cc(=O)[nH]c(C(C)C)n1    89 to 93 °C
3  N#Cc1ccc2c(c1)C(c1ccccc1F)=NCC(OP(=O)(N1CCOCC1)N1CCOCC1)=N2  194 to 197 °C
4  CC(C)(C)OC(=O)C1=C(c2ccccc2)C(c2ccccc2)OC1=O (stereo not drawn)  109 to 111 °C
5        Cc1ccccc1NC(=O)c1ccccc1[Si](C)(C)C  117 to 119 °C
6     O=C(CCCCNC(=O)c1cn2c3c(cccc13)CCC2)NO  179 to 181 °C
7  COc1ccccc1N1CCN(CC2(C)N=C(c3ccccc3)NC2=O)CC1 (stereo not drawn)    86 to 89 °C

====

property-name: melting point

In [3]: df
Out[3]:
                                    compound         result
 0  Cc1c(C)c(N2CCN(c3ccn(C)n3)CC2)c(C)c2c1OC(C)(C)C2  147 to 149 °C
 1  O=C1C(CCC(O)c2ccc(F)cc2)C(c2ccc(-c3cccc(O)c3)cc2)N1c1ccc(F)cc1 (stereo not drawn)         107 °C
 2  COc1ccc2c(c1)C(C)(N)C(=O)N2c1ccc(F)cc1 (stereo not drawn)  163 to 164 °C
 3                  CNC(=NCCCSCn1cncc1C)NC#N  156 to 158 °C
 4  COc1ncccc1-c1ccc(OC2SCC(O)C(O)C2O)cn1 (stereo not drawn)         127 °C
 5        CS(=O)(=O)Nc1ccc(C(=O)c2ccccc2)cc1  145 to 147 °C
 6             Cn1cc(-c2ccccc2S(N)(=O)=O)cn1  183 to 186 °C
 7  CCOC(=O)c1cnn(-c2cccc(N(C)C)n2)c1S(N)(=O)=O  157 to 160 °C
 8  COc1ccc(-c2cc3nc(N4CCC4)c4ccccc4c3nn2)cc1  196 to 198 °C
 9  Nc1nc2c(s1)CC(N1CCN(c3ccc(Br)cn3)CC1)CC2 (stereo not drawn)  246 to 248 °C
10            N#Cc1cc2c(nc1N1CCCCCC1)CCCC2=O    76 to 78 °C
11  CC(=O)c1c(F)c(F)c(OCCOc2ccc3ccccc3c2)c(F)c1F  114 to 115 °C
12         Cc1[nH]nc(Nc2ccccc2)c1C(=O)OC(C)C  138 to 139 °C
13     C[Si](C)(Cn1ccnc1)c1ccc(-c2ccccc2)cc1    51 to 53 °C
14  CCC(O)(c1ccc(F)cc1)c1ccc(OCc2ccccc2)cc1 (stereo not drawn)    56 to 57 °C
15     CC(C)(C)c1ccc2sc3cc(C#N)ccc3c(=O)c2c1  181 to 184 °C
16  C(=C\c1nc(COc2ccc(CCCCn3ccnn3)cc2)co1)/c1ccccc1  125 to 126 °C
17     N#CSc1ccc([N+](=O)[O-])cc1C(Cl)(Cl)Cl          72 °C
18  CCC1(Br)Cc2c(Cl)ccc(OCC(=O)O)c2C1=O (stereo not drawn)  136 to 146 °C
19   O=CNC(O)C(Cl)(Cl)CCl (stereo not drawn)  105 to 109 °C
20  COc1ccc(/C=C(\C#N)c2ccc(N)cc2)cc1OC1CCCC1    82 to 84 °C
21           C=CCNC(=O)N1CC(Oc2cccc(Cl)c2)C1    87 to 89 °C
22       FC(Cc1ccc(Cl)cc1)(Cn1cncn1)Cn1cncn1  161 to 163 °C
23           COC(=O)c1cc2ccc(C(=O)O)cc2[nH]1  270 to 272 °C
24  COC1C(OC(=O)NC(=O)CCl)CCC(O)(CSC)C1C1(C)OC1CC=C(C)C (stereo not drawn)  101 to 102 °C
25  CC(C)C1c2onc(-c3ccc(Cl)cc3)c2CCC1C(=O)O (stereo not drawn)  180 to 182 °C
26  COc1nc(C)cnc1NS(=O)(=O)c1cccnc1-c1ccc(N2CCOCC2)cc1  197 to 198 °C
27  C=C(C1=C(CCC(=O)OC)C(=O)CC1O)c1ccccc1 (stereo not drawn)          80 °C
28        COC(=O)C=Cc1cnc(C(=O)OC)cc1C(=O)OC  126 to 128 °C
29  C[C@H](CO)Nc1nc(SCc2cccc(F)c2F)nc2[nH]c(=O)c(NCc3ccccc3)nc12   80 to 100 °C
30  C=C(C)n1cc(C(=O)O)c(=O)c2cc(F)c(N3CC[C@H](N)C3)cc21  249 to 255 °C
31  C=CCON=C(CC)C1=C(O)CC(c2ccc(NS(C)(=O)=O)cc2)CC1=O (stereo not drawn)  134 to 135 °C
32  COc1cc(-c2ccc(C(C)(C)C)s2)cc2oc(=O)c(C)c(C)c12         137 °C

====

Overview of reported melting point across a group of compounds:
property-name: melting point

>>> df
                                 smiles_repr  property_name           result
 0               COc1ccc(COCc2ccc(OC)cc2)cc1  melting point      58 to 59 °C
 1  COC(=O)CCCCCCCCCCCCCCCCCOS(=O)(=O)c1ccc(C)cc1  melting point  67.5 to 68.5 °C
 2  CC(C)(C)OC(=O)N1CCC2(CC1)CC(c1ccc(Cl)cc1)=NO2  melting point    138 to 141 °C
 3         O=C1c2ccccc2C(=O)N1CCCCCCc1cccnc1  melting point      90 to 92 °C
 4  COc1ccc(S(=O)(=O)N(Cc2cccnc2)c2c(C(=O)O)cnc3snc(C)c23)cc1  melting point    234 to 236 °C
 5  CCOC(=O)[C@@H]1C[C@H](Br)CN1C(=O)OC(C)(C)C  melting point      32 to 34 °C
 6                CN1CN(C)C(=S)N(c2ccccc2)C1  melting point      85 to 87 °C
 7  CCCc1c(OCCCOc2cc(OCc3ccccc3)c(-c3ccc(F)cc3)cc2CC)cccc1Oc1cc(F)ccc1C(=O)OC  melting point      77 to 78 °C
 8  CCN(CC)CCNC(=O)c1c(O)c2cnc(-c3ccccc3)nc2n(CCOC)c1=O  melting point    115 to 117 °C
 9  Cc1ccc(NC(=O)C(C)(C)C)c(-c2cccc(Br)n2)c1  melting point    120 to 126 °C
10                NNc1c(F)cc(Cl)c2nc(Cl)sc12  melting point    162 to 180 °C

====

Overview of reported melting point across a group of molecules:
property-name: melting point

>>> df
                                    molecule  property_name         result
 0  CCNC(=O)NCCCNn1c(COCC)nc2c(N)nc3c(c21)CCCC3  melting point  189 to 191 °C
 1     O=[N+]([O-])c1ccc2sc(=Nc3ccccc3)sc2c1  melting point  136 to 138 °C
 2   Cc1nc2ncnn2c(N[C@@H](C)c2ccc(F)cc2)c1Cl  melting point  103 to 104 °C
 3  Cc1cccc(NC(=O)NCC(=O)N(CC(=O)OCC(F)(F)F)c2ccccc2)c1  melting point         172 °C
 4            Cc1nc(C=CNC(=O)c2ccccc2)n[nH]1  melting point  140 to 145 °C
 5  CCOC(=O)C1=C(C(=O)OCC)C(c2cccc([N+](=O)[O-])c2)C(C(=O)OCC)=C(CC)N1 (centres undefined)  melting point         153 °C
 6  CCC(C)(C)NC(Nc1ccc2c(c1)OCO2)=C(C#N)S(=O)(=O)c1ccc(Cl)cc1  melting point  169 to 170 °C
 7  CC(C)(NS(=O)(=O)c1ccc(Oc2ccc(F)cc2)cc1)C(=O)NO  melting point  133 to 134 °C
 8      COc1ccc(C(=O)c2csc(S(N)(=O)=O)c2)cc1  melting point  173 to 175 °C
 9  CCC(=S)NC[C@H]1CN(c2ccc(N3CCN(C#N)CC3)c(F)c2)C(=O)O1  melting point  182 to 184 °C
10       CCN(CC)C(=O)COc1cc(N)c(Cl)cc1C(=O)O  melting point  186 to 188 °C
11  COC(=O)c1ccc(CNc2ccc(C)c(Nc3nccc(-c4cccnc4)n3)c2)cc1  melting point         158 °C
12  CCCc1c(OCC2(O)CCCCC2Sc2ccc(C(=O)CCC(=O)O)cc2)ccc(C(C)=O)c1O (centres undefined)  melting point    55 to 57 °C
13          COCc1c(OC)cc(Cc2cnc(N)nc2N)cc1OC  melting point  221 to 223 °C
14  COc1ccc2c(c1)CCC1C2CCC2(C)C(O)C(N)CC12 (centres undefined)  melting point  159 to 161 °C
15  CS(=O)(=O)N1CCCn2c(nc3c(N)nc4cc(Br)ccc4c32)C1  melting point         303 °C
16  COCCOc1cc(N(C)S(=O)(=O)c2ccccn2)c2[nH]c(C3=NCC(CC(N)=O)S3)cc2c1 (centres undefined)  melting point  100 to 102 °C
17  CNC1c2ccccc2CC1N1CCCCC1 (centres undefined)  melting point       > 260 °C
18  CCC(C)C(NC(=O)OC)C(=O)NC(Cc1ccccc1)C(O)CN(Cc1ccc(-c2cncs2)cc1)NC(=O)C(NC(=O)OC)C(C)C (centres undefined)  melting point  202 to 204 °C
